- assay.protocol: chemical genetic growth profiling, strain panel (AID 1159580);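 note: tested at 20 µM; growth read once vehicle control cultures reached saturation at 30 °C; lower values mean less growth of the strain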
- test.context: S. cerevisiae deletion strains, growth OD, locus YGR135W, strain pre9
Screen size: about 5,500 compounds; about 2,000 (36%) were called active. Inconclusive results (about 18%) are left out. Cut-off read from the data, not from the text of the source: active = normalized growth mostly below about 0.91 (no sharp cut-off); inconclusive = no clear call, values can overlap the other calls; inactive = mostly above about 0.92. Some of the results follow.
Please answer using one outcome listed in active, inactive

// known answers, use as guide
Which outcome did this test record for the compound CCC(C)C(=O)O[C@@H]1C[C@@]2(C)[C@H](c3ccoc3)OC(=O)CC23OC2(C)O[C@]14[C@]1(C)[C@@H](CC(=O)OC)C5(C)CC1(O)[C@](O)(C5OC(=O)C1(C)OC1C)[C@@H](OC(C)=O)[C@]34O2 (some centres undefined) ?
inactive

Per the assay record, what outcome was assigned to `O=C(O[C@@H]1Cc2c(O)cc(O)cc2O[C@@H]1c1ccc(O)c(O)c1)c1cc(O)c(O)c(O)c1` ?
inactive

What outcome does the record of this test show for `COc1ccc(C(c2ccc(OC)cc2)C(Cl)(Cl)Cl)cc1` ?
inactive

How was `O=C1c2ccc(O)cc2O[C@H](c2cc(O)c(O)c(O)c2)[C@H]1O` classified in this test?
inactive

Which outcome did this test record for the compound C/C=C(\C)C(=O)O[C@H]1C[C@@H](OC(C)=O)[C@@]2(C(=O)OC)CO[C@@H]3C2[C@]12CO[C@](O)(C(=O)OC)[C@H]2[C@](C)(C12O[C@@]1(C)[C@H]1C[C@@H]2OC2OC=C[C@@]21O)[C@@H]3O (some centres undefined) ?
inactive

Assay result, entry `NCCc1cnc[nH]1` — outcome?
inactive

Continuing:
Which outcome was entered for the compound `Oc1cc(O)c2c(c1)O[C@H](c1ccc(O)c(O)c1)[C@@H](O)C2` in this test?
inactive

Lab log entry: `Nc1nc(=S)c2[nH]cnc2[nH]1` — outcome as called in the assay?
inactive
